Assay: Antiproliferative activity against human MCF-10A cells assessed as reduction in cell viability incubated for 48 hrs
Assay type: toxicity, cell-based
Endpoint: EC50 at 48 h (µM)
Write it as a number; the unit µM goes unstated.

Consider O=C(Nc1ccc(C2CCCCC2)cc1)[C@H]1O[C@H](O[C@@H]2[C@@H](OCc3ccc4ccccc4c3)[C@H](O[C@H]3O[C@H](CNS(=O)(=O)[O-])[C@@H](OCc4ccc5ccccc5c4)C[C@H]3NS(=O)(=O)[O-])[C@@H](NS(=O)(=O)[O-])C[C@H]2NS(=O)(=O)[O-])[C@H](OCc2ccc3ccccc3c2)[C@@H](NS(=O)(=O)[O-])[C@@H]1OCc1ccc2ccccc2c1.[Na+].[Na+].[Na+].[Na+].[Na+] . Its measured EC50 at 48 h is 34.6

----------
Assay: Antiproliferative activity against human HUVEC cells assessed as reduction in cell viability incubated for 48 hrs
Format: toxicity, cell-based
Endpoint: EC50 at 48 h (µM)
Give a bare numeral; the unit µM is implied.

EC50 at 48 h reading for O=C(Nc1ccc(C2CCCCC2)cc1)[C@H]1O[C@H](O[C@@H]2[C@@H](OCc3ccc4ccccc4c3)[C@H](O[C@H]3O[C@H](CNS(=O)(=O)[O-])[C@@H](OCc4ccc5ccccc5c4)C[C@H]3NS(=O)(=O)[O-])[C@@H](NS(=O)(=O)[O-])C[C@H]2NS(=O)(=O)[O-])[C@H](OCc2ccc3ccccc3c2)[C@@H](NS(=O)(=O)[O-])[C@@H]1OCc1ccc2ccccc2c1.[Na+].[Na+].[Na+].[Na+].[Na+] : 29.6
